The reported measurements were obtained from patent US20240409645A1.

Target: T1, human IL-2Rα (human, UniProt P01589 22-240, limits assumed)
T1 construct: recombinant protein; also called hu IL-2R; human IL-2Ra
T1 sequence: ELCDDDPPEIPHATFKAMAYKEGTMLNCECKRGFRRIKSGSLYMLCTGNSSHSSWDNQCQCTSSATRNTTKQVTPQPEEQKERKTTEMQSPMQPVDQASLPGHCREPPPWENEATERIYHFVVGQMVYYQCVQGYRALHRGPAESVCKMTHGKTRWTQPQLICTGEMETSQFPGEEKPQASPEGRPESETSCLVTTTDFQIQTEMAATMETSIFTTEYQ
Assay: SPR, P.E. on immobilised antigen
Experimental endpoint: koff (s⁻¹)
Quick note: give the figure in s⁻¹, leave out the unit.

Binder: FJ1427_P035MP05D06 (VHH, periplasmic extract; also called clone nr) VHH: QVQLVESGGGLVQAGDSLRLSCAASGFNFGWHAMGWFRQAPGKEREFVATITWTGRDTYYADSVRGRFTISKDNAKDTLFLQMNSLRPDDTGVYYCAKARERATWAYSEDDCDYWGQGTQVTVSS
Unit: s⁻¹
Assay value: 0.000677
//
Binder: FJ1427_P035MP05E08 (VHH, periplasmic extract; also called clone nr) VHH: EVQLVESGGGSVQAGGSLRLSCEASGPTLFSSYGMGWFRQAPGKKEREFVGAISRYGTYTSYADPVKDRFTISRDNAKSTVYLQMNNTKPEDTAVYYCAAYTYSGSFYSTVKTHHDEYHYWGQGTQVTVSS
Unit: s⁻¹
Assay value: 0.000214

Q) Query koff for 07-MP01G08 (VHH, periplasmic extract; also called FJ1427_P035MP01G08) VHH: EVQLVESGGGLVQAGGSLRLSCAASGRAFSMYNMGWFRQAPGKEREFVAATGWSGANTPYADSVKGRFTISRDNTQNTVYLQMNSLKPEDTATYYCAADSIRLRSDVTRIPLEYDYWGQGTQVTVSS
A) 0.00184

Q) Identify measured koff associated with FJ1427_P035MP05C07 (VHH, periplasmic extract; also called 92-MP05C07) VHH: QVQLVESGGGSVQAGGSLRLSCEASGRTLFSSYGMGWFRQAPGKEREFVGAISRFGTYTSYADPVKDRFTISRDNAKSTVYLQMNNTKPEDTAVYYCAAYTYSGSFYSTVKTHHDEYRYWGQGTQVTVSS
A) 0.00141

Q) Provide koff value for the following binder: FJ1427_P035MP05E04 (VHH, periplasmic extract; also called clone nr) VHH: QVQLVESGGGLVQAGGSLRLSCAASGGTFRTRNMGWFRRAPGKEREFVAAVSWSVDNKLYAGSVKGRFTISRDNGRNMVYLQMNSLKPEDTAVYYCAADNIPLSSDMRPTATEFGYWGQGTRVTVSS
A) 0.00158

Q) For the binder FJ1427_P035MP01G10 (VHH, periplasmic extract; also called clone nr; 79) VHH: EVQLVESGGGLVQAGGSLRLSCAASGGAFSRYAVGWFRMAPGKGREFVSAIDLSGTNTHVLDSVKGRFTISRDNDKNTAYLQMDKLQPEDTAVYWCAATSSSYSDYEANYNIWGQGTQVTVSS , give its measured koff value.
A) 0.000443

Q) Return the recorded koff value; entry: 4-MP01F04 (VHH, periplasmic extract; also called FJ1427_P035MP01F04) VHH: QVQLVESGGGLVQAGGSLRLSCAASGGTFRTRNMGWFRRAPGKEREFVAAVSWNVDNKLYADSVKGRFTISRDNGRNMVYLQMNSLKPEDTAVYYCAADNIPLSSDMRPTATEYDYWGQGTQVTVSS
A) 0.000258

Q) Please list koff recorded for the binder FJ1427_P035MP05C10 (VHH, periplasmic extract; also called clone nr) VHH: QLQLVESGGGLVQTGGSLRLSCSTSGFTFDGYAIGWFRQAPGKEPEGVSYITGSDGSTYYADSVKGRFTISSDNAKNTVYLHMNSLKPDDAAVYYCAIDRLGSGGAYVPIWWRSSDMDLWGKGTLVTVSS
A) 0.00406
